# Tested on: LXRa homodimer (NR concentration 270 nM)
# procedure.details: PBM binding z-score (relative to random genomic background probes); higher = stronger binding; sequences stand for … in GC…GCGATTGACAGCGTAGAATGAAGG
readout.kind: PBM binding z-score
Give the value as a plain number.

A selection of reference data follows.
sequence.string | numeric.result
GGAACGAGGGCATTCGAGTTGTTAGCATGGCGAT | -0.561
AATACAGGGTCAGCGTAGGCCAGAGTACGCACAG | 0.74
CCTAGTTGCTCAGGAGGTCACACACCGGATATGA | 2.47

Output PBM binding z-score of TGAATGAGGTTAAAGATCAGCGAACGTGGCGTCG
-0.568

Item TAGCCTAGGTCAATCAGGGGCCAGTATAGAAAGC : provide PBM binding z-score
0.313

Give the reported value of PBM binding z-score for this record: GGAACGAGTGCAAAGTTGATAGCATCTGTCGACG
-0.379

* * *

# System: PPARg:RXRa 270nM:90nM, anti-RXR (NR concentration 270 nM, RXRa partner concentration 90 nM)
# procedure.details: PBM binding z-score (relative to random genomic background probes); higher = stronger binding; sequences stand for … in GC…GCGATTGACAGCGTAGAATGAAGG
Where PBM binding z-score equals or exceeds 0.9, the correct label is rule met; where it does not, the label is rule not met.

Reference set, count: 3
sequence.string | class.name
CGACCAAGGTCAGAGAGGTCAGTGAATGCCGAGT | rule met
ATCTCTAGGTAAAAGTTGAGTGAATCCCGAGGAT | rule met
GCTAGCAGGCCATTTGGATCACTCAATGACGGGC | rule not met

In plain terms: is recorded PBM binding z-score at least 0.9 for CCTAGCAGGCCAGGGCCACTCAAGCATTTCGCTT ?
rule not met

Determine whether this sequence has PBM binding z-score no lower than 0.9: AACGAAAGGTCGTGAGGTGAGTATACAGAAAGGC
rule met

In plain terms: is recorded PBM binding z-score at least 0.9 for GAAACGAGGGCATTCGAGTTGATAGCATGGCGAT ?
rule met

PBM binding z-score >= 0.9 for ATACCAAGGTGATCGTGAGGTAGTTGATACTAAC ?
rule not met

Decide: PBM binding z-score of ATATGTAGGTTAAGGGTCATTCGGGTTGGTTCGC >= 0.9?
rule met

Dear colleague, could you confirm whether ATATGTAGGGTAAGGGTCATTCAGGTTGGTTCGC has PBM binding z-score at or above 0.9?
rule met

Is PBM binding z-score at least 0.9? Consider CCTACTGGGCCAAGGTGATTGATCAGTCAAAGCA
rule met

Dear colleague, could you confirm whether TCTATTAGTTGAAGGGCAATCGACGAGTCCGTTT has PBM binding z-score at or above 0.9?
rule met

* * *

# System: PPARg:RXRa 30nM:10nM, anti-RXR (NR concentration 30 nM, RXRa partner concentration 10 nM)
# procedure.details: PBM binding z-score (relative to random genomic background probes); higher = stronger binding; sequences stand for … in GC…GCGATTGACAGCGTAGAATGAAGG
readout.kind: PBM binding z-score
Give the figure only, with no unit attached.

sequence.string | PBM binding z-score
CGTCCAAGGGCAAGGTCAGTGAAAGAGACTCGAA | -0.324

For the sequence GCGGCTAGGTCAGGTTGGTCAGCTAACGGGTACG , report PBM binding z-score.
-0.687

Specify measured PBM binding z-score for GCTTACGGGTCAAAGGTTCTAGCATGAATAGAAT .
7.78

Give me measured PBM binding z-score, please, for this sequence: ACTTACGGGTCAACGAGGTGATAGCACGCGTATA
2.26

Name the recorded PBM binding z-score of the item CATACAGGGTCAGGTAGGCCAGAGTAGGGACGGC in your answer.
0.655

Please list PBM binding z-score recorded for the sequence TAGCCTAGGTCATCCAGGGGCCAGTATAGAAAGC
0.738
